# studySystem: human IL-6 (human, UniProt P05231 30-212)
# Sequence (P05231 30-212 limits assumed): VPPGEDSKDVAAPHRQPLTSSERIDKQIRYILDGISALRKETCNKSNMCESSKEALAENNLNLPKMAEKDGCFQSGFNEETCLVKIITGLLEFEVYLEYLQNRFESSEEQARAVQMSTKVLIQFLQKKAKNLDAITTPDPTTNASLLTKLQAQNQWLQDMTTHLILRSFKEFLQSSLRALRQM
# assayMethodText: SPR Biacore, supernatant, Protein A capture, 37 C
assayEndpoint: kon (M⁻¹ s⁻¹)

Anti-IL-6 antibody, heavy chain S35H, G66D, L100A / light chain M32L, M50D, N52S, M88Q (antibody, IgG1, V domains shown, IgG1; variable domains only; VL is variant III) VH: EVQLVESGGGLVQPGGSLRLSCAASGFTFSPFAMHWVRQAPGKGLEWVAKISPGGSWTYYSDTVTDRFTFSLDTSKSTAYLQMNSLRAEDTAVYYCARQAWGYYALDIWGQGTLVTVSS VL: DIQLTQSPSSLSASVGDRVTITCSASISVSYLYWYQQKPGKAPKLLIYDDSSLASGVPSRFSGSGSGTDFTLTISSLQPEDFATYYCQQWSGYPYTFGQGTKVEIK	5.82e+07
Anti-IL-6 antibody, heavy chain S35H, G66D, L100T / light chain M32L, M50D, N52S, M88Q (antibody, IgG1, V domains shown, IgG1; variable domains only; VL is variant III) VH: EVQLVESGGGLVQPGGSLRLSCAASGFTFSPFAMHWVRQAPGKGLEWVAKISPGGSWTYYSDTVTDRFTFSLDTSKSTAYLQMNSLRAEDTAVYYCARQTWGYYALDIWGQGTLVTVSS VL: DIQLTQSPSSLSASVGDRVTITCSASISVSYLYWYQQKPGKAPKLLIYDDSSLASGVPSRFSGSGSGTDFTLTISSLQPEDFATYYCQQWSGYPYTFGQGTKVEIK	1.36e+07
Anti-IL-6 antibody, heavy chain S35H, G66D / light chain WT (antibody, IgG1, V domains shown, IgG1; variable domains only) VH: EVQLVESGGGLVQPGGSLRLSCAASGFTFSPFAMHWVRQAPGKGLEWVAKISPGGSWTYYSDTVTDRFTFSLDTSKSTAYLQMNSLRAEDTAVYYCARQLWGYYALDIWGQGTLVTVSS VL: DIQLTQSPSSLSASVGDRVTITCSASISVSYMYWYQQKPGKAPKLLIYDMSNLASGVPSRFSGSGSGTDFTLTISSLQPEDFATYYCMQWSGYPYTFGQGTKVEIK	1.46e+06

Origin of measurements: patent US20240209076A1
